From: paper PMC8036949

system-under-test: T1, hORC1(413-511) (Homo sapiens, UniProt Q13415 413-511)
T1 sequence: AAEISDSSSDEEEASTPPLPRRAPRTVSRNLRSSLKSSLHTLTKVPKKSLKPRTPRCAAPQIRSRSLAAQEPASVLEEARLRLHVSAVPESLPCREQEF
procedure-details: fluorescence anisotropy; 100 mM KCl; FA: 20 mM HEPES-KOH pH 7.7, 100 mM KCl (or LiCl), 1 mM EDTA, 1 mM DTT, 25 C, 2 uM DNA, 1:1 fit; NMR: same buffer with 10% D2O, 10 uM DSS, 75 uM DNA, 25 C
assay-setup: protein: recombinant; tags: N-terminal GST (pGEX-6P-1) removed with PreScission protease; label: 5'-FAM on strand 1; blunt
measurement-label: Kd (nM)
A number alone suffices; assume nM.

// sample dsDNA (dsDNA) DNA 1: AAATTTAAAAAAAAAAATAATT DNA 2: AATTATTTTTTTTTTTAAATTT , its Kd was 1910
